- TARGET SYSTEM: PRKG2 (human)
- TEST PROTOCOL: radiometric filter-binding kinase assay, Kinase HotSpot
- RECORDED CONDITIONS: compound 0.5 µM; ATP 10 µM
Attribute: residual activity
Report only the number, with the unit % understood.

Observe how each entry below is paired with its result.
FC(F)(F)c1ccc(/C=C/c2nc(COc3ccc(CCCCn4ccnn4)cc3)co2)cc1
89.9
O=C(O)c1ccc2c3c1cccc3c(=O)n1c3ccccc3nc21
94.8
COc1cc2c(N3CCN(C(=O)Nc4ccc(OC(C)C)cc4)CC3)ncnc2cc1OCCCN1CCCCC1
105

For reference, reported residual activity for CCc1nc(-c2ccc(OC)cc2)[nH]c1-c1ccncc1 stands at 91.9

Quick note, residual activity for c1ccc(-c2cnc(Nc3ccc(OCCN4CCCC4)cc3)s2)cc1 landed at 106

Record summary for N/C(=N\N=C/c1ccc(-c2cccc([N+](=O)[O-])c2)o1)N[N+](=O)[O-] : reported residual activity = 98.7

N#Cc1c(NC(=O)c2cccc3ccccc23)sc2c1CCCC2 has a reported residual activity of 111

// residual activity lookup, molecule = O=c1c(-c2ccc(F)cc2)c(-c2ccncc2)[nH]n1-c1ccc(Cl)cc1 , result: 110

The molecule COc1cc2c(cc1OC)-c1[nH]nc(Nc3cccc(F)c3)c1C2 showed residual activity equal to 92.5

The molecule listed as O=C1NC(=O)c2c1c1c3ccccc3[nH]c1c1[nH]c3cc(Br)ccc3c21 shows residual activity equal to 29.7

---

The entries below are paired with their reported residual activity.
- TARGET SYSTEM: RPS6KB1 (human)
- TEST PROTOCOL: radiometric filter-binding kinase assay, Kinase HotSpot
- RECORDED CONDITIONS: compound 0.5 µM; ATP 10 µM
Kindly provide the numeric value in % only, without the unit symbol.

Solved entries (count: 3):
O=S(=O)(NCCNC/C=C/c1ccc(Br)cc1)c1cccc2cnccc12
25.6
FC(F)(F)c1ccc(/C=C/c2nc(COc3ccc(CCCCn4ccnn4)cc3)co2)cc1
105
COc1cc2c(N3CCN(C(=O)Nc4ccc(OC(C)C)cc4)CC3)ncnc2cc1OCCCN1CCCCC1
107

Per the records, this molecule ( CCOc1cc2ncnc(Nc3cccc(Br)c3)c2cc1OCC ) has residual activity equal to 95.8

Entry COc1cc2c(cc1OC)-c1[nH]nc(Nc3cccc(F)c3)c1C2 — recorded residual activity = 99.1

For this molecule ( O=C1NC(=O)c2cc(Nc3ccc(F)cc3)c(Nc3ccc(F)cc3)cc21 ), measured residual activity is 95.5

Short answer for O=c1[nH]c2ccccc2n1C1CCN(Cc2ccc(-c3nc4cc5[nH]cnc5cc4nc3-c3ccccc3)cc2)CC1 : residual activity was 101

---

The entries below come with measured residual activity values attached.
- Test system: SGK1 (human), O00141 [S422D]
- Sequence (O00141 whole entry S422D, looked up): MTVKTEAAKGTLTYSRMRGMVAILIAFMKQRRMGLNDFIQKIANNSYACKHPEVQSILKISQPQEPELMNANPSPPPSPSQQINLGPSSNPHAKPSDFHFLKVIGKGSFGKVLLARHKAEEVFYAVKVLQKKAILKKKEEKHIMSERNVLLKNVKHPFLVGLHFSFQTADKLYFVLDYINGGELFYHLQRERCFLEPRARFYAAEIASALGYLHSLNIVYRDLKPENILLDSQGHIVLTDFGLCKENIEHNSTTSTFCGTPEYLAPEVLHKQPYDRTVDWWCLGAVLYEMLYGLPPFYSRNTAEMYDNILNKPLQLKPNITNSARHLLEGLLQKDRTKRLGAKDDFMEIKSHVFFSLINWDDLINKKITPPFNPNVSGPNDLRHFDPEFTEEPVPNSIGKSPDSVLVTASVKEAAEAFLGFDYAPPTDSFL
- TEST PROTOCOL: radiometric filter-binding kinase assay, Kinase HotSpot
- RECORDED CONDITIONS: compound 0.5 µM; ATP 10 µM
Express it in %; write the number only.

Some compounds with known residual activity results, for comparison:
CSc1nc(-c2ccc(F)cc2)c(-c2ccnc(NC(C)c3ccccc3)c2)[nH]1 (stereo not given)
97.3
Cc1ccc(Nc2nccc(N(C)c3ccc4c(C)n(C)nc4c3)n2)cc1S(N)(=O)=O
125
COc1ccc(OC)c2c(=S)c3ccccc3[nH]c12
125

Summary for this compound, CC(C)[C@H](CO)Nc1nc(Nc2cccc(Cl)c2)c2ncn(C(C)C)c2n1 : residual activity is 99.1

GET /value?item= CCN(CC)CCNC(=O)c1c(C)[nH]c(/C=C2\C(=O)Nc3ccc(Cl)cc32)c1C &field=residual activity returns 49.6

Just for reference, the kinase profiling compilation of Christmann-Franck et al. (2016) is where these values come from.
